# Tested on: MS2 coat protein
# EXPERIMENT NOTES: apparent KD of MS2 coat protein; higher = weaker reporter binding
# RUN PARAMETERS: Eterna round: R107; input ligand: arginine 13.2 mM
Given measured apparent KD of MS2 coat protein, output class 1 if it is greater than or equal to 40 nM and class 0 if not.

apparent KD of MS2 coat protein >= 40 nM for AACAUGAGGAUCACCCAUGUCUGAACUGAAGGAGCGCUAAAUAAGGCAGGUAGGUCGCGGAAUUUUGUGUGCAUAUGCAUAUGGG [9.I] ? class 0

Does apparent KD of MS2 coat protein meet or surpass 40 nM for GCUAGGUCAUCGGCCGCCACUAACGACGGUUCCAACAUGAGGAUCACCCAUGUGCCACAUGCGCAUAGGACCGGGAUGACCUAGC [SSTB NP+V+V2 #5] ? class 0

Could you tell me if the measured apparent KD of MS2 coat protein of UGUCGAAACUGAAGGAGCGAGAUGACAAACAUGAGGAUCACCCAUGUUAUGGGUUGUUAAUCUCAGGUAGGUCGCAGUGACAAAA [Same State Arginine B GF 16] reaches 40 nM or more? class 1

Does apparent KD of MS2 coat protein meet or surpass 40 nM for ACAUGAGGAUCACCCAUGUUCCUCAUUGAUACCAGUGAAUUUAGACGCCCUUGGCAGCGAGUUUUUGAAGAAGAAGUUUUUUUUU [6.D] ? class 1

Form field: apparent KD of MS2 coat protein at least 40 nM? Entry: ACAUGAGGAUCACCCAUGUGAAGGCACGAUACCAGCUGAUCCCGUGGCCCUUGGCAGCGUCACGUUUGGUCCCGCGGAUGAGACG [crcmullin] class 0

Evaluate CCUAUGCAGUCGGCCGCCACUGAACAUGAGGAUCACCCAUGUAACGGAAACGAAGAUCCUGAAAUCAGGACCGGGACUGUAUAGG [Ex Tryptophan B 3] : apparent KD of MS2 coat protein at minimum 40 nM? class 1

Hi, just wondering whether GGUAGCAGGACUGAUACCAGUCCAGCGAAUCAUACGACGCAACAUGAGGAUCACCCAUGUGACCCUUGGCAGCAGUCUGCUACCG [Same State Theophylline B GF 29] shows apparent KD of MS2 coat protein of 40 nM or higher. class 0

# check: apparent KD of MS2 coat protein of AUUAAAGUUUAUAAGGAAAUUGAAACAGAAGGAGCGUGAGUAAUCACAGGUAGGUCGCUGGUAGUACAUGAGGAUCACCCAUGUU [JR_Nu_SSArginiA_Sub020] is greater than or equal to 40 nM class 0

Kindly determine if apparent KD of MS2 coat protein recorded for CAUAUAUAUUGAAGGAGCGACAUGAGGAUCACCCAUGUCUACCACGUCGAAAGACGCUCAUGUCAGGUAGGUCGCAAUAUAUAUG [Astros-Eli-mod5] is above or exactly 40 nM. class 1

Could you please find out whether CUACAUUUGUAGAAACCGGUCAACAAUAAUCGAGGACCGGUACGGCCGCCACUCGUAUAAUUUAAUACAUGAGGAUCACCCAUGU [Tryptophan A 1] has apparent KD of MS2 coat protein that meets 40 nM or exceeds it? class 0

Is the recorded value of apparent KD of MS2 coat protein equal to or greater than 40 nM for this sequence? CGGGCCGCUGCGGAUACCAGUUGAGCAUAGGUAGUGUAUGACAUGAGGAUCACCCAUGUUAACCCUUGGCAGCCGAGAGGGCAGA [theeternabot_exclusion_MS2_Theo_B_13] class 0

Form field: apparent KD of MS2 coat protein at least 40 nM? Entry: CAAUAUAUAUGAAGGAGCGUCGAAAAUGGGUAAACAUGAGGAUCACCCAUGUAAAGGGAACGACAGGUAGGUCGCAUAUAUAUUG [AstromonsSSArgB#8] class 1

// data source = the supplement of paper PMC9170038
